Hi there, I'd appreciate the recorded inhibition at 40 µM for every entry that follows.
molecular target: Bcl-xL-Beclin 1 complex (Homo sapiens); construct: made in house; assay: FP-based high-throughput screening, primary screen; assay type: binding; settings: first screen; 40 μM compound, 2.5 μM Bcl-xL, 400 nM 20-mer
Counter-ions that a name gives are not always drawn.
One number for each entry, in %.

Consider the reported inhibition at 40 µM for these compounds:
O=C(O)c1cc(O)c2c(c1)[C@H]([C@H]1c3cc(C(=O)O)cc(O)c3C(=O)c3c(O[C@@H]4O[C@H](CO)[C@@H](O)[C@H](O)[C@H]4O)cccc31)c1cccc(O[C@@H]3O[C@H](CO)[C@@H](O)[C@H](O)[C@H]3O)c1C2=O [Compound A34, SENNOSIDE A]; 12.8
CCN(CC)CCCC(C)Nc1c2ccc(Cl)cc2nc2ccc(OC)cc12 (stereo not shown) [Compound A21, QUINACRINE HYDROCHLORIDE]; 48.2
CCCCCCCCCc1ccc(OCCOCCOCCOCCOCCOCCOCCOCCOCCO)cc1; 9.04

// below: inhibition at 40 µM requested for another compound
Record CCCCC(CC)CCC(CC(C)C)OS(=O)(=O)O (stereo not shown) [Compound A06, SODIUM TETRADECYL SULFATE] . Reported inhibition at 40 µM: 9.56

###

target: Bcl-xL-Beclin 1 complex (Homo sapiens, UniProt Q07817); construct: made in house; assay: FP-based high-throughput screening, primary screen; format: binding; conditions: first screen; 40 μM compound, 2.5 μM Bcl-xL, 400 nM 20-mer
Sequence (Q07817 whole entry, one chain of several): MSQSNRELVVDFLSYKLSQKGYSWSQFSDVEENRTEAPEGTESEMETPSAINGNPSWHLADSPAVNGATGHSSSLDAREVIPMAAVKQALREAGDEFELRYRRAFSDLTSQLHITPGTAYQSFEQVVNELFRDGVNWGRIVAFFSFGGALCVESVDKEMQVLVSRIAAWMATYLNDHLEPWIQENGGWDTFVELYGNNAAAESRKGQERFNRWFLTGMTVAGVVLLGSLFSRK
Counter-ions that a name gives are not always drawn.
recorded-endpoint: Primary Screen mP (mP)
Numbers only, in mP.

O=C(Nc1ccccc1)c1ccccc1O [Compound A39, SALICYLANILIDE]; -3.2
CCCc1nc2c(C)cc(-c3nc4ccccc4n3C)cc2n1Cc1ccc(-c2ccccc2C(=O)O)cc1 [Compound A16]; 125.4
CCOc1ccc2nc3cc(N)ccc3c(N)c2c1 [Compound A15, ETHACRIDINE LACTATE]; 83.5

Could I get Primary Screen mP for every one of these entries?
1. CCN(CC)CCNC(=O)COc1ccc(OC)cc1.Cl [Compound A32, MEFEXAMIDE HYDROCHLORIDE]
2. OCCN(CCO)c1nc(N2CCCCC2)c2nc(N(CCO)CCO)nc(N3CCCCC3)c2n1 [Compound A22, DIPYRIDAMOLE]
3. Cc1cc2c(C(C)C)c(O)c(O)c(C=O)c2c(O)c1-c1c(C)cc2c(C(C)C)c(O)c(O)c(C=O)c2c1O [Compound A38, GOSSYPOL]
4. COC(=O)Nc1nc2ccc(Sc3ccccc3)cc2[nH]1 [Compound A10, FENBENDAZOLE]
5. C[n+]1c2cc(N)ccc2cc2ccc(N)cc21.[Cl-] [Compound A26, ACRIFLAVINIUM HYDROCHLORIDE]
6. CCN(CC)CCCC(C)Nc1c2ccc(Cl)cc2nc2ccc(OC)cc12 (centres unmarked) [Compound A21, QUINACRINE HYDROCHLORIDE]
7. Cc1cc2nc3c(=O)[nH]c(=O)nc-3n(C[C@H](O)[C@H](O)[C@H](O)CO)c2cc1C [Compound A31, RIBOFLAVIN]
8. COC(=O)CC[C@@H](C)[C@H]1CC[C@H]2[C@@H]3[C@H](O)C[C@@H]4C[C@H](O)CC[C@]4(C)[C@H]3C[C@H](O)[C@]12C [Compound A09, CHOLIC ACID, METHYL ESTER]

Result:
1: 119.7; 2: 72.7; 3: 125.4; 4: 128.0; 5: -3.2; 6: 72.2; 7: -3.2; 8: 127.0

###

biological target: Bcl-xL-Beclin 1 complex (Homo sapiens, UniProt Q07817); construct: made in house; assay: Concentration response FP reconfirmation of HTS hits; format: binding; settings: 20 μM; hits of first screen; read-out: Dose-response (% Inhibition) 20 μM
Structures can show the parent of a compound that is named as a salt.
Classify by measured inhibition at 20 µM: satisfied if it is equal to or exceeds 6%, not satisfied if it is smaller.

Reference set, count: 4
COC(=O)Nc1nc2ccc(Sc3ccccc3)cc2[nH]1; not satisfied
CCOc1ccc2nc3cc(N)ccc3c(N)c2c1 [Compound A15, ETHACRIDINE LACTATE]; satisfied
COc1cccc2c1C(=O)c1c(O)c3c(c(O)c1C2=O)C[C@@](O)(C(=O)CO)C[C@@H]3O[C@H]1C[C@H](N)[C@@H](O)[C@H](C)O1 [Compound A24, EPIRUBICIN HYDROCHLORIDE]; satisfied
Nc1ccc2cc3ccc(N)cc3nc2c1 [Compound A13, PROFLAVINE HEMISULFATE]; satisfied

Task: Hello, I need to know if O=C(O)c1cc(O)c2c(c1)[C@H]([C@H]1c3cc(C(=O)O)cc(O)c3C(=O)c3c(O[C@@H]4O[C@H](CO)[C@@H](O)[C@H](O)[C@H]4O)cccc31)c1cccc(O[C@@H]3O[C@H](CO)[C@@H](O)[C@H](O)[C@H]3O)c1C2=O [Compound A34, SENNOSIDE A] has measured inhibition at 20 µM not below 6%. Thanks!
Result: satisfied

Task: Assess whether reported inhibition at 20 µM for O=C(O)C1=CC(=C(c2ccc(O)c(C(=O)O)c2)c2ccc(O)c(C(=O)O)c2)C=CC1=O sits at 6% or higher.
Result: not satisfied

Task: Has CN(C)c1ccc(C(=C2C=CC(=[N+](C)C)C=C2)c2ccc(N(C)C)cc2)cc1 a recorded inhibition at 20 µM greater than or equal to 6%?
Result: not satisfied

###

target: Bcl-xL-Beclin 1 complex (Homo sapiens, UniProt Q07817); construct: made in house; test: Concentration response FP reconfirmation of HTS hits; format: binding; details: read-out: Dose-response (% Inhibition) 160 μM
Counter-ions that a name gives are not always drawn.
Rule: 1.0 for inhibition at 160 µM not less than 30%, 0.0 for anything less.

Would you please look over these solved cases?
CC[n+]1c(-c2ccccc2)c2cc(N)ccc2c2ccc(N)cc21 [Compound A12, HOMIDIUM BROMIDE]; 1.0
O=C(Nc1ccccc1)c1ccccc1O [Compound A39, SALICYLANILIDE]; 1.0
COc1cccc2c1C(=O)c1c(O)c3c(c(O)c1C2=O)C[C@@](O)(C(C)=O)C[C@@H]3O[C@H]1C[C@H](N)[C@H](O)[C@H](C)O1; 1.0
CCCCCCCCCc1ccc(OCCOCCOCCOCCOCCOCCOCCOCCOCCO)cc1; 0.0
O=C1C(Cl)=C(Cl)C(=O)C(Cl)=C1Cl; 1.0

Task: Evaluate C[n+]1cc2c3c(ccc2c2ccc4cc5c(cc4c21)OCO5)OCO3 [Compound A05, SANGUINARINE SULFATE] : inhibition at 160 µM at minimum 30%?
Result: 1.0

Task: Identify whether the reported inhibition at 160 µM of the following molecule is 30% or greater: CN1C[C@H](C(=O)N[C@]2(C)O[C@@]3(O)[C@@H]4CCCN4C(=O)[C@H](Cc4ccccc4)N3C2=O)C=C2c3cccc4[nH]cc(c34)C[C@H]21 [Compound A18, ERGOTAMINE TARTRATE]
Result: 0.0

Task: Record Cc1cc2c(C(C)C)c(O)c(O)c(C=O)c2c(O)c1-c1c(C)cc2c(C(C)C)c(O)c(O)c(C=O)c2c1O ; criterion: inhibition at 160 µM no lower than 30%. Met?
Result: 0.0

###

Test system: DU145, PC-3a and PC-3 prostate cancer cell lines
Assay: MTT-based cytotoxicity assay, all three prostate cancer cell lines
Parameters: species or system Human
Settings: Homo sapiens, DU-145; MTT; DU145, PC-3a and PC-3; read-out: cytotoxicity IC50, stated for all three cell lines together
Source text: We also tested the cytotoxicity of the 17 compounds in human prostate cancer cell lines by MTT assay (Table 1). Human prostate cancer cell lines PC-3 and DU145, were purchased from American Type Culture Collection (ATCC) and used within 50 passages. […] All cells were maintained in DMEM (Mediatech, Manassas, VA) supplemented with 10% fetal bovine serum (FBS) (Sigma-Aldrich, St. Louis, MO), 1% Glutamine (Mediatech, Manassas, VA), 1% antibiotics (Mediatech, Manassas, VA). […]
Would you mind telling me the reported IC50 of each entry?

// solved cases for IC50 follow
COc1ccc2nc3ccccc3c(-c3ccc([N+](=O)[O-])cc3)c2c1; > 100 µM
O=C(CSc1nc(=O)c2ccccc2[nH]1)c1ccc(O)c(O)c1; > 100 µM
CCN(CC)CCCCNc1c2ccc(Cl)cc2nc2ccc(OC)cc12; < 0.5 µM

I have 4 compounds here; please give me IC50 for each one.
1. COc1ccc2nc3cc(Cl)ccc3c(-c3ccc(F)cc3)c2c1
2. Nc1c2ccccc2nc2ccccc12
3. COc1ccc(CCNc2ncnc3ccccc23)cc1OC
4. COc1ccc2nc3cc(Cl)ccc3c(-c3ccc([N+](=O)[O-])cc3)c2c1

Result:
> 100 µM
0.5 to 5 µM
> 100 µM
> 100 µM
